Cited source for all entries: ChEMBL document CHEMBL1201862

System: SR
Test protocol: NCI tumour cell line growth inhibition, 48 h
The source made the active and inactive calls. Rule as the data show it: active = GI50 up to about 1.1 µM and inactive = higher.
Assay metric: GI50

[
  {
    "Compound": "CCOC(=O)N/N=C(/N)Cc1ccccc1",
    "Assay result": "> 100 µM (inactive)"
  },
  {
    "Compound": "N#Cc1c(-c2ccccc2)c2c([nH]c1=O)-c1cc([N+](=O)[O-])ccc1CCC2",
    "Assay result": "28.8 µM (inactive)"
  },
  {
    "Compound": "N#CCCOc1cccc(C2(N3CCCCC3)CCCCC2)c1",
    "Assay result": "> 100 µM (inactive)"
  },
  {
    "Compound": "O=c1cnn(C/C=C\\CO)c(=O)[nH]1",
    "Assay result": "> 100 µM (inactive)"
  },
  {
    "Compound": "CCc1c(-c2coc(CC/C(C)=C/c3ccccc3)n2)oc(OC)c(C)c1=O",
    "Assay result": "< 0.01 µM (active)"
  },
  {
    "Compound": "C=C(C)COc1ccc2c(c1)CCC1C2CCC2(C)C(=O)/C(=N/O)CC12 (centres undefined)",
    "Assay result": "0.966 µM (active)"
  },
  {
    "Compound": "O=C1C(=O)c2c(oc(=O)c3ccccc23)-c2ccccc21",
    "Assay result": "> 25 µM (inactive)"
  },
  {
    "Compound": "COC1(OC)C(N(C)C)=C(Cl)C(=O)/C1=C/C=O",
    "Assay result": "57.3 µM (inactive)"
  },
  {
    "Compound": "CC(C)=CCc1c(O)c(CC=C(C)C)c2oc(-c3ccc(O)cc3O)c(CC=C(C)C)c(=O)c2c1O",
    "Assay result": "2.34 µM (inactive)"
  },
  {
    "Compound": "CC12Nc3c(Cl)cc(Cl)cc3N1C(=O)c1ccccc12 (centres undefined)",
    "Assay result": "63.8 µM (inactive)"
  },
  {
    "Compound": "C=CCOn1c(C=C)nc2ccc(C)cc21",
    "Assay result": "7.59 µM (inactive)"
  },
  {
    "Compound": "N#CC(C#N)=C1C(C#N)=C(N)NC12OCCO2",
    "Assay result": "> 100 µM (inactive)"
  },
  {
    "Compound": "CC1=NN(c2ccccc2)C(=O)C12[C@H](c1ccccc1)C2(C#N)C#N (some centres undefined)",
    "Assay result": "1.91 µM (inactive)"
  },
  {
    "Compound": "CCC1CCC2c3c([nH]c4ccccc34)C3C(=O)N(c4ccc(OC)cc4)C(=O)C3C2C1 (centres undefined)",
    "Assay result": "16.1 µM (inactive)"
  },
  {
    "Compound": "CC(=O)C(=[N+]=[N-])C(=O)OCCOC(=O)C(=[N+]=[N-])C(C)=O",
    "Assay result": "> 1 µM (active)"
  },
  {
    "Compound": "C[C@]1(CO)[C@H]2CC[C@@]34C=C[C@@](CO)(CC[C@H]3[C@]2(C)CC[C@H]1O)C4",
    "Assay result": "24.3 µM (inactive)"
  },
  {
    "Compound": "CCCN(CCCN)/[N+]([O-])=N\\O",
    "Assay result": "> 100 µM (inactive)"
  },
  {
    "Compound": "O=C(/C=C/c1ccccc1)Oc1cccc(O)c1",
    "Assay result": "18.2 µM (inactive)"
  },
  {
    "Compound": "CC(C)=CCC/C(C)=C/CC/C(C)=C/CC(CO)N(C)CC/C=C(\\C)CCC=C(C)C (centres undefined)",
    "Assay result": "2.17 µM (inactive)"
  },
  {
    "Compound": "O=C(c1ccccc1)c1c(-c2ccccc2)[nH]n(-c2ccc([N+](=O)[O-])cc2)c(=O)c1=O",
    "Assay result": "35.5 µM (inactive)"
  },
  {
    "Compound": "O=C(CCCl)NN=C1NCCCN1",
    "Assay result": "> 100 µM (inactive)"
  },
  {
    "Compound": "Cc1cc(O)nc(NNC(C#N)c2ccc(O)cc2)n1 (centres undefined)",
    "Assay result": "> 100 µM (inactive)"
  },
  {
    "Compound": "CCCCCC[N+](C)(C)Cc1ccc(C[N+](C)(C)CCCCCC)cc1",
    "Assay result": "2.19 µM (inactive)"
  },
  {
    "Compound": "NC(CCCC(N)P(=O)(O)c1ccccc1)P(=O)(O)c1ccccc1 (centres undefined)",
    "Assay result": "> 261 µM (inactive)"
  },
  {
    "Compound": "COC(=O)C1[C@@H](C(=O)OC)C12C=Cc1ccccc1C=C2 (some centres undefined)",
    "Assay result": "> 100 µM (inactive)"
  },
  {
    "Compound": "C=C(C)OCOCCOC",
    "Assay result": "> 100 µM (inactive)"
  },
  {
    "Compound": "CNC(=O)[C@H](Cc1ccccc1)NC(=O)N(CCC#N)CCN(C(=O)N[C@@H](Cc1ccccc1)C(=O)OC)c1ccccc1",
    "Assay result": "> 100 µM (inactive)"
  },
  {
    "Compound": "C[n+]1c(-c2ccc(/C=N/NC(=O)c3ccc(C(=O)N/N=C/c4ccc(-c5cn6ccccc6[n+]5C)cc4)cc3)cc2)cn2ccccc21",
    "Assay result": "> 100 µM (inactive)"
  },
  {
    "Compound": "CC1(C)C2CCC1(C)[C@H](O)[C@H]2Nc1cc(C(F)(F)F)cc(C(F)(F)F)c1 (some centres undefined)",
    "Assay result": "2.95 µM (inactive)"
  },
  {
    "Compound": "O=C(O)CNC(=O)c1cccc2c(=O)c3ccccc3[nH]c12",
    "Assay result": "14.9 µM (inactive)"
  },
  {
    "Compound": "CSc1nc2c(c(=O)n1C)N=C(c1ccc(Cl)cc1)CC(c1ccccc1)N2 (centres undefined)",
    "Assay result": "29.9 µM (inactive)"
  },
  {
    "Compound": "NC(=O)C(=O)N/N=C(\\CC1(O)C(=O)Nc2ccccc21)c1ccc2ccccc2c1 (centres undefined)",
    "Assay result": "18.2 µM (inactive)"
  },
  {
    "Compound": "CCOC(=O)C(Cl)(NC(=O)c1c(F)c(F)c(F)c(F)c1F)C(F)(F)F (centres undefined)",
    "Assay result": "9.4 µM (inactive)"
  },
  {
    "Compound": "CCOC(=O)CCc1c(C(=O)OCC)[nH]c(/C=C2/NC(=O)C(C)=C2CC)c1C",
    "Assay result": "4.51 µM (inactive)"
  }
]
